Hey, just so you know, these numbers are from patent US20210163601A1.

testedSystem: T1, Soluble ASGR-1 (recombinant, biotinylated) (human, UniProt P07306 62-291, limits assumed, biotinylated)
T1 construct: also called recombinant, soluble ASGR-1 biotinylated protein
T1 sequence: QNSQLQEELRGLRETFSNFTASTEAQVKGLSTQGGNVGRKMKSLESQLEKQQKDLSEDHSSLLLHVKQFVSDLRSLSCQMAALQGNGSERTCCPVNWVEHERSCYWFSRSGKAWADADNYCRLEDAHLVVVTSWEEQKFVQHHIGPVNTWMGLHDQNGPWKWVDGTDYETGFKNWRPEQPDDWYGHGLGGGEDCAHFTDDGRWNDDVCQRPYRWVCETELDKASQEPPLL
methodDescription: limiting antigen bead FACS; biotinylated soluble ASGR-1 coated at 2.5 ng/mL on LumAvidin beads;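 further: hybridoma supernatants of ligand-competing antibodies bound to antigen-loaded beads, read by flow cytometry on an iQue Screener in calcium-containing buffer, higher fluorescence meaning stronger relative affinity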
Recorded FACS Geomean values for a group of binders are listed next.

| binder | FACS Geomean |
| --- | --- |
| 25A4 (antibody, V domains shown, Tested as hybridoma supernatant) VH: QVLLVQSGAEVKRPGASVKVSCKASGYTFTNYDINWVRQATGQGLEWMGWMYPNSGNTGYAQKFQGRVTMTRNTSISTAYMELSSLRSEDTAVYYCASSSGWYYFDYWGQGTLVTVSS VL: DIVMTQFPDSLAVSLGERATIKCKSSQSVLYSSHNNNYLAWYQQKPGQPPKLLLYWASTRESGVPDRFSGSGSGTEFTLTISSLEAEDVAVYYCQQYYSTPPTFGQGTKVEIK | 18000 |
| 4H6 (antibody, V domains shown, Tested as hybridoma supernatant) VH: QVQLVQSGAEVKKPGASVKVSCKASGYTFTDYYLHWVRQAPGQGLEWMGWIHPNSGGTNYAQKFQGRVTMTRDTSISTAYMGLSSLRSDDTAVYYCARDGTSSFDYWGQGTLVTVSS VL: DIQMTQSPSSVSASVGDRVTITCRASQGISRWLAWYQQKPGKAPKLLIYGASSLQSGVPSRFSGSGSGTDFTLTISSLQPEDFAIYYCQQANSFPFTFGPGTKVDIK | 2990 |
